Listed compounds paired with reported pIC50
# Tested on: human colon cancer cell line LS180
# procedureSummary: Cancer cell growth inhibition, LS180 (sulforhodamine B)
# Assay type: cell-based
# condition: Homo sapiens; LS180, 72 hours, 37° C.
Field pIC50 (float): negative decimal logarithm of the concentration in molar.

INSERT INTO measurements (compound, measuredvalue) VALUES
  ('COc1cc(C)cc2c(=O)oc3c4cccc(OC5OC(C)C(O)C(O)C5O)c4c(O)cc3c12 (stereo not shown)', 4.44),
  ('Cc1cc(O)c2c(c1)c(=O)oc1c3cccc(O)c3c(OC3OC(C)C(O)C(O)C3O)cc12 (stereo not shown) [BE-12406B]', 4.06),
  ('COc1cc(C)cc2c(=O)oc3c4cccc(O)c4c(OC4OC(C)C(O)C(O)C4O)cc3c12 (stereo not shown) [BE-12406A]', 4.92);

Now turn to the next compound.
Endpoint output: pIC50 of "COc1cc(C)cc2c(=O)oc3c4cccc(O)c4c(O)cc3c12" . Value?
3.51

###

# Test system: P388/A cells
# procedureSummary: In vitro growth inhibition of P388/A cells (adriamycin-resistant)
# Assay type: cell-based, mouse
# condition: Mus musculus; P388/A (adriamycin-resistant); read-out: IC50, 50% inhibitory concentration, P388/A
# Experimental: In vitro activity tests were performed for evaluating the inhibitory activities of the antitumor substances BE-12406A and B against mouse tumor cells. In the in vitro antitumor assay using P388 tumor cells, the antitumor substance BE-12406A or B was first dissolved in dimethyl sulfoxide and the solution was serially diluted with a cell culture medium containing 20% of dimethyl sulfoxide (20% DMSO-RPMI-1640 medium). […] The viable cells were then counted with a Coulter counter. […]
measureName: IC50 (µM)
The reply should be a number in µM, with the unit left off.

INSERT INTO assay_data (compound, measuredvalue) VALUES
  ('COc1cc(C)cc2c(=O)oc3c4cccc(O)c4c(OC4OC(C)C(O)C(O)C4O)cc3c12 (centres unmarked) [BE-12406A]', 0.9);

Endpoint output: IC50 of Cc1cc(O)c2c(c1)c(=O)oc1c3cccc(O)c3c(OC3OC(C)C(O)C(O)C3O)cc12 (centres unmarked) [BE-12406B] . Value?
11
